# STUDY_SYSTEM: T1, Anti-PSMA Fab (SEQ ID NOs: 19, 20)
# T1 construct: Biotinylated and captured on neutravidin coated plates in the phage ELISA; also called 006 PSMA Fab
# EXPERIMENTAL_DETAILS: phage binding ELISA; biotinylated anti-PSMA Fab on neutravidin plate, PSMA antigen as competitor, anti-M13 HRP detection
RESULT_TYPE: Anti-PSMA Fab signal in the presence of PSMA
Enter a number only.

Prompt line: Which Anti-PSMA Fab signal in the presence of PSMA is listed for EWKWCTPSWMCEDA [Phage-2105] ?
Response line: 0.0652

Prompt line: Query (binder): SERWCIPEWMCSMP [Phage-2114] ; field requested: Anti-PSMA Fab signal in the presence of PSMA
Response line: 0.0625

Prompt line: Using the record for VHNWCIPSWMCEGL [Phage-2107] , report its Anti-PSMA Fab signal in the presence of PSMA.
Response line: 0.0717
